Test system: HeLa cells
Assay: Effect of compounds on topotecan cytotoxicity (EZ4U test)
Format: cell-based, human
Conditions: compound 10 μM in combination with Tpc
recorded.metric: Enhancement of Tpc Cytotoxicity by 10 μM Compounds
Dear colleague, please send the value followed by its unit.

# molecule, system, observed
data = [
    ("O[C@@H]1[C@H](O)[C@@H](COC(c2ccccc2)(c2ccccc2)c2ccccc2)O[C@H]1n1cnc2c(NC(c3ccccc3)(c3ccccc3)c3ccccc3)ncnc21 [compound 5f]", "HeLa cells", "1.7 Times"),
    ("O=C(OC[C@H]1O[C@@H](n2cnc3c(Cl)nc(Cl)nc32)[C@H](OC(=O)c2ccccc2)[C@@H]1OC(=O)c1ccccc1)c1ccccc1 [compound 6d]", "HeLa cells", "4.8 Times"),
]

Here is the next item to consider.
Req: Report Enhancement of Tpc Cytotoxicity by 10 μM Compounds for O=C(OC[C@H]1O[C@@H](n2cnc3c(Cl)nc(F)nc32)[C@H](OC(=O)c2ccccc2)[C@@H]1OC(=O)c1ccccc1)c1ccccc1 [compound 6c] please.
Resp: 6.5 Times

// data source = paper PMC9822400
